experiment: Half life in rat at 5 mg/kg, po and 2 mg/kg, iv; assay type: ADME, organism-based; details: in vivo
Assay metric: half-life (h)

[[record]]
chemical_structure = "COc1cc(OC2CCN(C)CC2)c2c(Nc3ccc(F)c(Cl)c3)ncnc2c1"
output_unit = "h"
value_reported = 2.9


----------
assay: Plasma clearance in mouse at 5 mg/kg, po and 2 mg/kg, iv; assay type: ADME, organism-based
Assay metric: clearance

[[record]]
chemical_structure = "COc1cc(OC2CCN(C)CC2)c2c(Nc3ccc(F)c(Cl)c3)ncnc2c1"
value_reported = "20 mL/min/kg"


----------
assay: Bioavailability in rat at 5 mg/kg, po and 2 mg/kg, iv; format: ADME, organism-based; conditions: in vivo
Assay metric: bioavailability (%)

[[record]]
chemical_structure = "COc1cc(OC2CCN(C)CC2)c2c(Nc3ccc(F)c(Cl)c3)ncnc2c1"
assay_metric = "bioavailability"
value_reported = 63

